Tested on: P. falciparum NF54 strain
Assay: P. falciparum NF54 growth assay, 3H-hypoxanthine incorporation (hit validation)
Format: cell-based, Plasmodium falciparum
Conditions: hit validation, NF54 confirmatory assay
Marks after values point to notes of the source that are not given here.
quantity measured: Comment (activity in words on retest)

> print(dat)
                                   molecule  endpoint.value
1  Cc1ccc(S(=O)(=O)N2C[C@@H](C)N(Cc3ccc(C(=O)NC4CC4)cc3)C[C@H]2C)cc1 [Compound 15b]             Hit
2  O=C(Nc1cccc(Cl)c1)N1CC2(CCN(Cc3ccccc3)CC2)c2ccccc21 [Compound 17]             Hit
